Biological target: 17β-Hydroxysteroid Dehydrogenase Type 2 Enzyme (17β-HSD2) (Homo sapiens, UniProt P37059)
Construct: made in house; host or cells: Sf-9 insect cells (baculovirus)
Sequence (P37059 whole entry): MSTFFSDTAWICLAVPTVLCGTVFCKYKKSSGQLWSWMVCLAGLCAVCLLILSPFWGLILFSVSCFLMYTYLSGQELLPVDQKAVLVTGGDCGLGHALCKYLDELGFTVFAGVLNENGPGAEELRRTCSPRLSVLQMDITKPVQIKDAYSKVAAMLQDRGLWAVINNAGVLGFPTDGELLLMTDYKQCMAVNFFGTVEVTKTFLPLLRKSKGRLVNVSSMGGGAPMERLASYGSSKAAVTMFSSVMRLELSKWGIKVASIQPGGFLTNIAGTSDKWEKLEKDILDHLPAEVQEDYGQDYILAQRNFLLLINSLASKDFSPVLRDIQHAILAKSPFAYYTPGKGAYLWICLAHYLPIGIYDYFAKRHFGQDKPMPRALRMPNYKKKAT
Experiment: Inhibition of the 17β-hydroxysteroid dehydrogenase type 2 enzyme, 3H-testosterone conversion
Format: biochemical
Conditions: inhibitor at 10 μM
parameter: inhibition at 10 µM (%)
Supply the numeric figure in %, leaving out any unit text.

INSERT INTO assay_data (compound, parameter, recorded_result) VALUES
  ('N#CC(=C1CCN(C(=O)N2CCC(CO)CC2)CC1)c1ccc(C(F)(F)F)cc1 [Compound 76]', 'inhibition at 10 µM', 20),
  ('N#CC(=C1CCN(C(=O)N2CCC(C(F)(F)F)CC2)CC1)c1ccc(Cl)cc1 [Compound 90]', 'inhibition at 10 µM', 30),
  ('Cn1ncc2cccc(C(C#N)=C3CCN(C(=O)N4CCn5cncc5C4)CC3)c21 [Compound 59]', 'inhibition at 10 µM', 22);

Okay, next one:
# lookup: inhibition at 10 µM of COC1CCN(C(=O)N2CCC(=C(C#N)c3ccc(F)cc3F)CC2)CC1 [Compound 91]
23
